# method: chemical genetic growth profiling, strain panel (AID 1159580);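 further: tested at 20 µM; growth read once vehicle control cultures reached saturation at 30 °C; lower values mean less growth of the strain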
# run parameters: S. cerevisiae deletion strains, growth OD, locus YOR316C, strain cot1
Out of some 5,500 compounds screened, about 2,000 (36%) were called active. About 18% were inconclusive and are not listed. No stated cut-off is given here; in the data, active means normalized growth mostly below about 0.91 (no sharp cut-off); inconclusive means no clear call, values can overlap the other calls; inactive means mostly above about 0.92. Some of the results follow.
Outcome codes: y (active), n (inactive)

INSERT INTO results (chemical_string, classification) VALUES
  ('Oc1cccc2cccnc12', 'y'),
  ('CCCN(CCC)c1c([N+](=O)[O-])cc(C(F)(F)F)cc1[N+](=O)[O-]', 'n'),
  ('CC1=C(C(=O)O)N2C(=O)[C@@H](NC(=O)[C@@H](N)c3ccc(O)cc3)[C@H]2SC1', 'n'),
  ('N[C@@H](C(=O)N[C@@H]1C(=O)N2C(C(=O)O)=C(Cl)CS[C@H]12)c1ccccc1', 'n'),
  ('O=C(O)c1cccnc1C(=O)O', 'n');
